Assay: PFAS levels in serum samples of airport employees (LC/MS/MS)
Conditions: 5th sampling (January 2019), count 16
attribute measured: Serum PFAS level, Max
Respond with the number and no other words.

# annotated cases, reported Serum PFAS level, Max shown
O=S(=O)(O)C(F)(C(F)(F)F)C(F)(F)C(F)(F)C(F)(F)C(F)(F)C(F)(F)C(F)(F)F (stereo not drawn) [1m-PFOS, perfluoro-1-methylheptanesulfonate] :: 4.5
O=C(O)C(F)(F)C(F)(F)C(F)(F)C(F)(F)C(F)(F)F :: 1.2
O=S(=O)(O)C(F)(F)C(F)(F)C(F)(F)C(F)(F)C(F)(F)C(F)(F)C(F)(F)C(F)(F)F :: 23
O=S(=O)(O)C(F)(F)C(F)(F)C(F)(F)C(F)(F)C(F)(F)C(F)(F)C(F)(F)F :: 6.2
O=C(O)C(F)(F)C(F)(F)C(F)(F)C(F)(F)C(F)(F)C(F)(F)C(F)(F)F :: 27

Kindly review the next compound as well.
Query: Quick check: Serum PFAS level, Max of O=S(=O)(O)C(F)(F)C(F)(F)C(F)(F)C(F)(F)F ?
Reply: 0.30

###

Assay: Individual serum elimination rate and half-life (linear regression per employee);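 on HL (half-life): half-life in years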
Settings: human, serum, oral, HL (half-life), individual estimate, subject 15, 5 samples
# reported half-life; entries follow
Value expressed in days; do not type the unit.

O=S(=O)(O)C(F)(F)C(F)(F)C(F)(F)C(F)(F)C(F)(F)C(F)(F)F :: 804
O=C(O)C(F)(F)C(F)(F)C(F)(F)C(F)(F)C(F)(F)C(F)(F)C(F)(F)F :: 402

Kindly review the next compound as well.
Query: Quick check: half-life of O=C(O)C(F)(F)C(F)(F)C(F)(F)C(F)(F)C(F)(F)C(F)(F)F ?
Reply: 73

###

# reported HL (half-life); entries follow
Test: Individual serum elimination rate and half-life (linear regression per employee);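 on HL (half-life): half-life in years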
Conditions: individual estimate, subject 3, 5 samples
Value expressed in year; do not type the unit.

O=S(=O)(O)C(F)(F)C(F)(F)C(F)(F)C(F)(F)F [PFBS, perfluorobutane sulfonic acid] :: 0.1
O=S(=O)(O)C(F)(C(F)(F)F)C(F)(F)C(F)(F)C(F)(F)C(F)(F)C(F)(F)C(F)(F)F (stereo not drawn) [1m-PFOS, perfluoro-1-methylheptanesulfonate] :: 0.9

Kindly review the next compound as well.
Query: Quick check: HL (half-life) of O=S(=O)(O)C(F)(F)C(F)(F)C(F)(F)C(F)(F)C(F)(F)C(F)(F)C(F)(F)C(F)(F)F [L-PFOS, linear perfluorooctane sulfonic acid] ?
Reply: 1.3

###

# reported Serum level in the first samples, median (range); entries follow
Assay: PFAS levels in serum samples of airport employees (LC/MS/MS)
Settings: all 26 airport employees

Query: Quick check: Serum level in the first samples, median (range) of O=S(=O)(O)C(F)(F)C(F)(F)C(F)(F)C(F)(F)C(F)(F)F ?
Reply: 6.9 (1.4–17) ng/mL

###

Test: PFAS levels in serum samples of airport employees (LC/MS/MS)
Details: 5th sampling (January 2019), count 16
Hi! Could you tag entries with Serum PFAS level, 25 percentile below 4 as Criterion met, and those at or above as Criterion not met? Much appreciated.

Examples with answers:
O=S(=O)(O)C(F)(C(F)(F)F)C(F)(F)C(F)(F)C(F)(F)C(F)(F)C(F)(F)C(F)(F)F (stereo not drawn) [1m-PFOS, perfluoro-1-methylheptanesulfonate] :: Criterion met
O=S(=O)(O)C(F)(F)C(F)(F)C(F)(F)C(F)(F)C(F)(F)C(F)(F)C(F)(F)C(F)(F)F :: Criterion not met
O=S(=O)(O)C(F)(F)C(F)(F)C(F)(F)C(F)(F)C(F)(F)F :: Criterion not met
O=S(=O)(O)C(F)(F)C(F)(F)C(F)(F)C(F)(F)C(F)(F)C(F)(F)C(F)(F)F :: Criterion met
O=S(=O)(O)C(F)(F)C(F)(F)C(F)(F)C(F)(F)C(F)(F)C(F)(F)F :: Criterion not met

Query: Criterion: Serum PFAS level, 25 percentile strictly below 4. Is it met by O=C(O)C(F)(F)C(F)(F)C(F)(F)C(F)(F)C(F)(F)F ?
Reply: Criterion met

Query: Criterion: Serum PFAS level, 25 percentile strictly below 4. Is it met by O=C(O)C(F)(F)C(F)(F)C(F)(F)C(F)(F)C(F)(F)C(F)(F)C(F)(F)F ?
Reply: Criterion not met

###

Experiment: PFAS levels in urine samples of airport employees, specific-gravity adjusted (LC/MS/MS)
Format: in vivo, human
Conditions: 4th sampling (December 2018), count 14
Record Satisfied whenever Specific gravity adjusted urinary level, 75 percentile is at 0.05 ng/mL or higher; record Not satisfied when lower.

Examples with answers:
O=S(=O)(O)C(F)(F)C(F)(F)C(F)(F)C(F)(F)C(F)(F)C(F)(F)F :: Satisfied
O=C(O)C(F)(F)C(F)(F)C(F)(F)C(F)(F)C(F)(F)C(F)(F)F :: Not satisfied
O=S(=O)(O)C(F)(F)C(F)(F)C(F)(F)C(F)(F)C(F)(F)C(F)(F)C(F)(F)C(F)(F)F :: Not satisfied

Could you now look at the following compound, please?
Query: // inclusive: Specific gravity adjusted urinary level, 75 percentile at least 0.05 ng/mL? input: O=S(=O)(O)C(F)(F)C(F)(F)C(F)(F)C(F)(F)C(F)(F)F
Reply: Satisfied

###

Assay: PFAS levels in serum samples of airport employees (LC/MS/MS)
Details: females (N=7)
attribute measured: Initial serum PFAS level, min
// return the numeric value with its unit appended

# annotated cases, reported Initial serum PFAS level, min shown
O=S(=O)(O)C(F)(F)C(F)(F)C(F)(F)C(F)(F)C(F)(F)F :: 3.5 ng/mL
O=S(=O)(O)C(F)(F)C(F)(F)C(F)(F)C(F)(F)C(F)(F)C(F)(F)C(F)(F)F :: 0.49 ng/mL
O=S(=O)(O)C(F)(F)C(F)(F)C(F)(F)C(F)(F)C(F)(F)C(F)(F)F :: 21 ng/mL
O=S(=O)(O)C(F)(C(F)(F)F)C(F)(F)C(F)(F)C(F)(F)C(F)(F)C(F)(F)C(F)(F)F (centres unmarked) [1m-PFOS, perfluoro-1-methylheptanesulfonate] :: 0.39 ng/mL

Kindly review the next compound as well.
Query: Quick check: Initial serum PFAS level, min of O=C(O)C(F)(F)C(F)(F)C(F)(F)C(F)(F)C(F)(F)C(F)(F)C(F)(F)F ?
Reply: 5.0 ng/mL

###

# reported Elimination rate; entries follow
Assay: Individual serum elimination rate and half-life (linear regression per employee)
Conditions: individual estimate, subject 11, 5 samples
Value expressed in yearly; do not type the unit.

# annotated cases, reported Elimination rate shown
O=C(O)C(F)(F)C(F)(F)C(F)(F)C(F)(F)C(F)(F)F :: 2.8
O=S(=O)(O)C(F)(C(F)(F)F)C(F)(F)C(F)(F)C(F)(F)C(F)(F)C(F)(F)C(F)(F)F (stereo not drawn) [1m-PFOS, perfluoro-1-methylheptanesulfonate] :: 1.9

Kindly review the next compound as well.
Query: Quick check: Elimination rate of O=C(O)C(F)(F)C(F)(F)C(F)(F)C(F)(F)C(F)(F)C(F)(F)F ?
Reply: 2.6

###

# reported Serum PFAS level, 25 percentile; entries follow
Assay: PFAS levels in serum samples of airport employees (LC/MS/MS)
Conditions: 1st sampling (September 2018), count 17
Respond with the number and no other words.

O=S(=O)(O)C(F)(F)C(F)(F)C(F)(F)C(F)(F)C(F)(F)F :: 5.8

Query: Quick check: Serum PFAS level, 25 percentile of O=C(O)C(F)(F)C(F)(F)C(F)(F)C(F)(F)C(F)(F)F ?
Reply: 0.24

Query: Quick check: Serum PFAS level, 25 percentile of O=S(=O)(O)C(F)(C(F)(F)F)C(F)(F)C(F)(F)C(F)(F)C(F)(F)C(F)(F)C(F)(F)F (stereo not drawn) [1m-PFOS, perfluoro-1-methylheptanesulfonate] ?
Reply: 0.48

Query: Quick check: Serum PFAS level, 25 percentile of O=S(=O)(O)C(F)(F)C(F)(F)C(F)(F)C(F)(F)C(F)(F)C(F)(F)C(F)(F)F ?
Reply: 0.96

Query: Quick check: Serum PFAS level, 25 percentile of O=S(=O)(O)C(F)(F)C(F)(F)C(F)(F)C(F)(F)C(F)(F)C(F)(F)F ?
Reply: 63

Query: Quick check: Serum PFAS level, 25 percentile of O=C(O)C(F)(F)C(F)(F)C(F)(F)C(F)(F)C(F)(F)C(F)(F)F ?
Reply: 0.45

###

Experiment: PFAS levels in serum samples of airport employees (LC/MS/MS)
Conditions: 3rd sampling (November, 2018), count 17
Record true whenever Serum PFAS level, 75 percentile is at 0.6 or higher; record false when lower.

Examples with answers:
O=S(=O)(O)C(F)(F)C(F)(F)C(F)(F)C(F)(F)C(F)(F)F :: true
O=S(=O)(O)C(F)(C(F)(F)F)C(F)(F)C(F)(F)C(F)(F)C(F)(F)C(F)(F)C(F)(F)F (stereo not drawn) [1m-PFOS, perfluoro-1-methylheptanesulfonate] :: true
O=C(O)C(F)(F)C(F)(F)C(F)(F)C(F)(F)C(F)(F)C(F)(F)C(F)(F)F :: true
O=C(O)C(F)(F)C(F)(F)C(F)(F)C(F)(F)C(F)(F)F :: false
O=S(=O)(O)C(F)(F)C(F)(F)C(F)(F)C(F)(F)F :: false

Could you now look at the following compound, please?
Query: // inclusive: Serum PFAS level, 75 percentile at least 0.6? input: O=S(=O)(O)C(F)(F)C(F)(F)C(F)(F)C(F)(F)C(F)(F)C(F)(F)F
Reply: true
